Each recorded value in this set is attributed to the Human Domainome abundance scans (Beltran et al. 2025).

Readings of abundance fitness for the listed variants
B1: Intersectin-1, residues 1156 to 1213; numbered along this chain, Q15811 (parent)
chain: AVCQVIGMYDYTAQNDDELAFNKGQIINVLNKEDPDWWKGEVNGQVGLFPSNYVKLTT

Variants of: B1
Assay: abundance fitness (aPCA) (normalised: wild type 0, dead -1); higher = more abundant; growth selection in yeast, the domain comes from the species named
Conditions: Homo sapiens
Measured Quantity: abundance fitness

- Sequence String: "AVCQVIGMQDYTAQNDDELAFNKGQIINVLNKEDPDWWKGEVNGQVGLFPSNYVKLTT [Y9Q]"
  Measured Quantity: "abundance fitness"
  Reading: 0.535
- Sequence String: "AVCQVIGMYDYTAQNEDELAFNKGQIINVLNKEDPDWWKGEVNGQVGLFPSNYVKLTT [D16E]"
  Measured Quantity: "abundance fitness"
  Reading: 0.059
- Sequence String: "AVCQVIGMYDYTAQNDDELAFNKGQIINVLNKEDPDWWKSEVNGQVGLFPSNYVKLTT [G40S]"
  Measured Quantity: "abundance fitness"
  Reading: -0.839
- Sequence String: "AVCQVIGCYDYTAQNDDELAFNKGQIINVLNKEDPDWWKGEVNGQVGLFPSNYVKLTT [M8C]"
  Measured Quantity: "abundance fitness"
  Reading: -0.02
- Sequence String: "AVCQVIGMYDYTAQNDDELAFNKGQIINVLNKEDPDKWKGEVNGQVGLFPSNYVKLTT [W37K]"
  Measured Quantity: "abundance fitness"
  Reading: -0.792
- Sequence String: "AVCQVIGMYDYTAQNDKELAFNKGQIINVLNKEDPDWWKGEVNGQVGLFPSNYVKLTT [D17K]"
  Measured Quantity: "abundance fitness"
  Reading: -0.099
- Sequence String: "AVCQVIGMYDYTAQNDDELAFNKGQIINVLNKEDPDWWKGEVYGQVGLFPSNYVKLTT [N43Y]"
  Measured Quantity: "abundance fitness"
  Reading: -0.734
- Sequence String: "AVCQVIGMYDYTAQNDDELAFNKGQIINVLNKEWPDWWKGEVNGQVGLFPSNYVKLTT [D34W]"
  Measured Quantity: "abundance fitness"
  Reading: -0.894
- Sequence String: "AVCQVIGMYDYTAQNDDELAFNKGQIINVLNKEDPDWWKGEVNGQVGLFPSRYVKLTT [N52R]"
  Measured Quantity: "abundance fitness"
  Reading: 0.022
- Sequence String: "AVCQVIGMYDYTAQNDDELAFNKGQIINVDNKEDPDWWKGEVNGQVGLFPSNYVKLTT [L30D]"
  Measured Quantity: "abundance fitness"
  Reading: -0.917
- Sequence String: "AVRQVIGMYDYTAQNDDELAFNKGQIINVLNKEDPDWWKGEVNGQVGLFPSNYVKLTT [C3R]"
  Measured Quantity: "abundance fitness"
  Reading: -0.555
- Sequence String: "AVCQVIGMYDYTAQNDDELAFNKGQIINVLNKEDPDWWKGEINGQVGLFPSNYVKLTT [V42I]"
  Measured Quantity: "abundance fitness"
  Reading: -0.048
- Sequence String: "AVCQVIGMYDYTAQNDDELAFCKGQIINVLNKEDPDWWKGEVNGQVGLFPSNYVKLTT [N22C]"
  Measured Quantity: "abundance fitness"
  Reading: 0.128
- Sequence String: "AVCQVIGMYDYTAQNDDELAFNKGQIICVLNKEDPDWWKGEVNGQVGLFPSNYVKLTT [N28C]"
  Measured Quantity: "abundance fitness"
  Reading: -0.632
- Sequence String: "AVCQVIGMYDYTAQNDDELAFNKGQIINVLNKEDPDWWKGEVNGVVGLFPSNYVKLTT [Q45V]"
  Measured Quantity: "abundance fitness"
  Reading: 0.008
- Sequence String: "AVCQCIGMYDYTAQNDDELAFNKGQIINVLNKEDPDWWKGEVNGQVGLFPSNYVKLTT [V5C]"
  Measured Quantity: "abundance fitness"
  Reading: 0.005
- Sequence String: "AVCQVIGMYDYTAQNDDELAFNKGQIINVLNKEDPDWWKGEVNGQVGLFPSNYVKLKT [T57K]"
  Measured Quantity: "abundance fitness"
  Reading: -0.024
- Sequence String: "AVCQVIGMYDYTAQNDDELAFNKGQIINVLNKEDPDWWKGRVNGQVGLFPSNYVKLTT [E41R]"
  Measured Quantity: "abundance fitness"
  Reading: -0.746
- Sequence String: "AVCLVIGMYDYTAQNDDELAFNKGQIINVLNKEDPDWWKGEVNGQVGLFPSNYVKLTT [Q4L]"
  Measured Quantity: "abundance fitness"
  Reading: -0.538
